Target: recombinant, purified human Caspase-8 (Homo sapiens, UniProt Q14790)
Sequence (Q14790 217-374 limits assumed): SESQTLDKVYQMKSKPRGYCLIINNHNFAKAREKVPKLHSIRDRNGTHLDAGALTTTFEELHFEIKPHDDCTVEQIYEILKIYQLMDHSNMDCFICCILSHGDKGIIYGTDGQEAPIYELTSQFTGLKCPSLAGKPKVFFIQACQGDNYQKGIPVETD
Sequence (Q14790 385-479 limits assumed): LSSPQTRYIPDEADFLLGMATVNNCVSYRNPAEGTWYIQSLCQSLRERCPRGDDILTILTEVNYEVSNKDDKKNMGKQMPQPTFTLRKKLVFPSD
Assay: Caspase-8 enzyme inhibition assay (fluorogenic substrate cleavage)
Format: biochemical
Details: second order rate constant of enzyme inactivation; substrate Acetyl-Asp-Glu-Val-Asp-amino-4-methylcoumarin
Square brackets hold non-standard residues; d marks the D form. Peptide text beside a SMILES is read from it. * marks the point of attachment. Cbz = O=C(OCc1ccccc1)*; Thz = O=C(O)[CH]1CSCN1; CH2F = FC*
value_type: C-8 Kinact

CC(C)[C@H](NC(=O)OCc1ccc(Cl)cc1)C(=O)NC(CC(=O)O)C(=O)CF (stereo partly drawn) [4-ClCbz-Val-Asp-fmk]
175 × 1000 M^−1s^−1
O=C(O)CC(NC(=O)C1CSCN1C(=O)OCc1ccccc1)C(=O)CF (stereo not drawn) [Cbz-Thz-Asp-fmk] (Cbz-[Thz]-Asp-CH2F; configuration not given here)
12 × 1000 M^−1s^−1

Parameter requested: C-8 Kinact. Apply to each item below.
1. O=C(O)CC(NC(=O)C1CCCN1C(=O)OCc1ccccc1)C(=O)CF (stereo not drawn) [Cbz-Pro-Asp-fmk] (Cbz-Pro-Asp-CH2F; configuration not given here)
2. O=C(O)CC(NC(=O)[C@@H]1CCCCN1C(=O)O[C@H](c1cccc(Cl)c1)C(F)(F)F)C(=O)CF (some centres unmarked) [Example 34]
3. O=C(O)CC(NC(=O)[C@@H]1CCc2ccccc2N1C(=O)OCc1ccccc1)C(=O)CF (some centres unmarked) [Example 3]

[reply]
15.5 × 1000 M^−1s^−1
839 × 1000 M^−1s^−1
122 × 1000 M^−1s^−1

###

Please go through the items and note down their C-1 Kinact.
Molecular target: recombinant, purified human Caspase-1 (Homo sapiens, UniProt P29466)
Sequence (P29466 120-297 limits assumed): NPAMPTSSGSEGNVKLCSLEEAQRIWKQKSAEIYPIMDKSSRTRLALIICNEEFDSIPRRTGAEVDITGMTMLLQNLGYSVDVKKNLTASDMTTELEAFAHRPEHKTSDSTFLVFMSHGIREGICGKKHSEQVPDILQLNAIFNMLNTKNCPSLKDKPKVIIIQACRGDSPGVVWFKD
Sequence (P29466 317-404 limits assumed): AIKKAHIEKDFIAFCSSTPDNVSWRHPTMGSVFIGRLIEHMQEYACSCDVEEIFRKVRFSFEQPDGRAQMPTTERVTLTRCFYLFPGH
Assay: Caspase-1 enzyme inhibition assay (fluorogenic substrate cleavage)
Assay type: biochemical
Conditions: second order rate constant of enzyme inactivation; substrate Acetyl-Tyr-Val-Ala-Asp-amino-4-methylcoumarin
Square brackets hold non-standard residues; d marks the D form. Peptide text beside a SMILES is read from it. * marks the point of attachment. Cbz = O=C(OCc1ccccc1)*; Thz = O=C(O)[CH]1CSCN1; CH2F = FC*

# example entries with known answers
O=C(O)CC(NC(=O)[C@@H]1CCc2ccccc2N1C(=O)OCc1ccccc1)C(=O)CF (some centres unmarked)
318 × 1000 M^−1s^−1
O=C(O)CC(NC(=O)[C@@H]1CCCCN1C(=O)O[C@H](c1cccc(Cl)c1)C(F)(F)F)C(=O)CF (some centres unmarked)
518 × 1000 M^−1s^−1
O=C(O)CC(NC(=O)C1CCCN1C(=O)OCc1ccccc1)C(=O)CF (stereo not drawn) [Cbz-Pro-Asp-fmk] (Cbz-Pro-Asp-CH2F; configuration not given here)
7.5 × 1000 M^−1s^−1

Parameter requested: C-1 Kinact. Apply to each item below.
1. O=C(O)CC(NC(=O)C1CSCN1C(=O)OCc1ccccc1)C(=O)CF (stereo not drawn) [Cbz-Thz-Asp-fmk] (Cbz-[Thz]-Asp-CH2F; configuration not given here)
2. CC(C)[C@H](NC(=O)OCc1ccc(Cl)cc1)C(=O)NC(CC(=O)O)C(=O)CF (some centres unmarked)

[reply]
227.5 × 1000 M^−1s^−1
69 × 1000 M^−1s^−1

###

Test system: cortical neurons
Test: Hypoxia-induced apoptosis of cortical neurons assay
Type: cell-based, Wistar rat
Settings: Cortical neurone; rat embryo cortical neurons, hypoxia 42 hours, DNA fragmentation ELISA
Square brackets hold non-standard residues; d marks the D form. Peptide text beside a SMILES is read from it. * marks the point of attachment. Cbz = O=C(OCc1ccccc1)*; Thz = O=C(O)[CH]1CSCN1; CH2F = FC*
Please go through the items and note down their pIC50.
Numbers only, as −log10 of the molar value.

# example entries with known answers
CC(C)[C@H](NC(=O)OCc1ccc(Cl)cc1)C(=O)NC(CC(=O)O)C(=O)CF (stereo partly drawn) [4-ClCbz-Val-Asp-fmk]
5.70
O=C(O)CC(NC(=O)[C@@H]1CCCCN1C(=O)OCc1cc(Cl)ccc1Cl)C(=O)CF (some centres unmarked) [Example 23]
6.47
O=C(O)CC(NC(=O)[C@@H]1CCCCN1C(=O)O[C@H](c1cccc(Cl)c1)C(F)(F)F)C(=O)CF (some centres unmarked) [Example 34]
6.33

Parameter requested: pIC50. Apply to each item below.
1. O=C(O)CC(NC(=O)C1CCCN1C(=O)OCc1ccccc1)C(=O)CF (stereo not drawn) [Cbz-Pro-Asp-fmk] (Cbz-Pro-Asp-CH2F; configuration not given here)
2. O=C(O)CC(NC(=O)C1CSCN1C(=O)OCc1ccccc1)C(=O)CF (stereo not drawn) [Cbz-Thz-Asp-fmk] (Cbz-[Thz]-Asp-CH2F; configuration not given here)

[reply]
5.56
5.81
